All figures here come from patent EP4729061A1.

- Experiment: Plasma pharmacokinetics in the xenograft mice on day 28 of treatment
- Format: in vivo, female BALB/c nude mice
- Protocol Conditions: female, BALB/c nude, po, analyte: the compound of Formula (A) in plasma, 25 mg/kg p.o. alone (G2) or + Fulvestrant 5 mg/mouse (G4), read-out: MRTInf_obs
Recorded Metric: MRT inf
Please report the result as a number followed by the unit.

Consider the compound `CC(C)NC[C@@H](C(=O)N1CCN(c2ncnc3c2[C@H](C)CC(=O)N3)[C@H]2C[C@H]21)c1ccc(Cl)cc1` and give its measured MRT inf.
10.5 h

---

- Experiment: Clinical trial of the compound of Formula (A) tablets as monotherapy: pharmacokinetics
- Format: in vivo, patients with advanced malignant solid tumors
- Protocol Conditions: human, in vivo, oral, 400 mg, Multiple Doses, 400mg Monotherapy, n=8, dose-expansion phase; read-out: Cmax,ss
- Source text: All contents of the trial protocol with registration number CTR20211999 on the China Drug Clinical Trial Registration and Information Disclosure Platform and results thereof are incorporated herein by reference. […]
Recorded Metric: Cmax (ng/mL)
Give your result in ng/mL as a bare value.

Consider the molecule `CC(C)NC[C@@H](C(=O)N1CCN(c2ncnc3c2[C@H](C)CC(=O)N3)[C@H]2C[C@H]21)c1ccc(Cl)cc1` and give its measured Cmax.
462

---

- Experiment: Plasma pharmacokinetics in the xenograft mice on day 28 of treatment
- Format: in vivo, female BALB/c nude mice
- Protocol Conditions: female, BALB/c nude, sc, analyte: fulvestrant in plasma, 5 mg/mouse s.c. alone (G3) or + the compound of Formula (A) 25 mg/kg (G4)
Recorded Metric: AUC(0-inf) (ng·h/mL)
Give your result in ng·h/mL as a bare value.

Consider the molecule C[C@]12CC[C@@H]3c4ccc(O)cc4C[C@@H](CCCCCCCCC[S+]([O-])CCCC(F)(F)C(F)(F)F)[C@H]3[C@@H]1CC[C@@H]2O (stereo partly shown) [Fulvestrant, reference compound] and give its measured AUC(0-inf).
6610

---

- Experiment: Clinical trial of the compound of Formula (A) tablets as monotherapy: pharmacokinetics
- Type: in vivo, patients with advanced malignant solid tumors
- Protocol Conditions: human, in vivo, oral, 400 mg, Single Dose, 400mg Monotherapy, n=10, dose-finding phase
Recorded Metric: half-life (h)
Give your result in h as a bare value.

Consider the molecule `CC(C)NC[C@@H](C(=O)N1CCN(c2ncnc3c2[C@H](C)CC(=O)N3)[C@H]2C[C@H]21)c1ccc(Cl)cc1` and give its measured half-life.
7.22

---

- Experiment: Clinical trial of the compound of Formula (A) tablets as monotherapy: pharmacokinetics
- Format: in vivo, patients with advanced malignant solid tumors
- Protocol Conditions: human, in vivo, oral, 400 mg, Multiple Doses, 400mg Monotherapy, n=8, dose-expansion phase; read-out: Vss/F
Recorded Metric: Vd/F (L)
Give your result in L as a bare value.

Consider the compound `CC(C)NC[C@@H](C(=O)N1CCN(c2ncnc3c2[C@H](C)CC(=O)N3)[C@H]2C[C@H]21)c1ccc(Cl)cc1` and give its measured Vd/F.
2880

---

- Experiment: Clinical trial of the compound of Formula (A) tablets as monotherapy: pharmacokinetics
- Type: in vivo, patients with advanced malignant solid tumors
- Protocol Conditions: human, in vivo, oral, 400 mg, Single Dose, 400mg Monotherapy, n=10, dose-finding phase; read-out: AUC0-t
Recorded Metric: AUC(0-t) (ng·h/mL)
Give your result in ng·h/mL as a bare value.

Consider the compound CC(C)NC[C@@H](C(=O)N1CCN(c2ncnc3c2[C@H](C)CC(=O)N3)[C@H]2C[C@H]21)c1ccc(Cl)cc1 [The compound of Formula (A)] and give its measured AUC(0-t).
2380

---

- Experiment: Plasma pharmacokinetics in the xenograft mice on day 28 of treatment
- Type: in vivo, female BALB/c nude mice
- Protocol Conditions: female, BALB/c nude, po, analyte: the compound of Formula (A) in plasma, 25 mg/kg p.o. alone (G2) or + Fulvestrant 5 mg/mouse (G4)
Recorded Metric: AUC(0-inf) (ng·h/mL)
Give your result in ng·h/mL as a bare value.

Consider the compound `CC(C)NC[C@@H](C(=O)N1CCN(c2ncnc3c2[C@H](C)CC(=O)N3)[C@H]2C[C@H]21)c1ccc(Cl)cc1` and give its measured AUC(0-inf).
18800

---

- Experiment: Clinical trial of the compound of Formula (A) tablets as monotherapy: pharmacokinetics
- Type: in vivo, patients with advanced malignant solid tumors
- Protocol Conditions: human, in vivo, oral; Single Dose, 400mg Monotherapy, n=10, dose-finding phase
Recorded Metric: Tmax (h)
Give your result in h as a bare value.

Consider the molecule `CC(C)NC[C@@H](C(=O)N1CCN(c2ncnc3c2[C@H](C)CC(=O)N3)[C@H]2C[C@H]21)c1ccc(Cl)cc1` and give its measured Tmax.
3

---

- Experiment: Clinical trial of the compound of Formula (A) tablets as monotherapy: pharmacokinetics
- Assay type: in vivo, patients with advanced malignant solid tumors
- Protocol Conditions: human, in vivo, oral, 400 mg, Multiple Doses, 400mg Monotherapy, n=8, dose-expansion phase; read-out: AUC0-t,ss
Recorded Metric: AUC(0-t) (ng·h/mL)
Give your result in ng·h/mL as a bare value.

Consider the compound `CC(C)NC[C@@H](C(=O)N1CCN(c2ncnc3c2[C@H](C)CC(=O)N3)[C@H]2C[C@H]21)c1ccc(Cl)cc1` and give its measured AUC(0-t).
3530

---

- Experiment: Plasma pharmacokinetics in the xenograft mice on day 28 of treatment
- Type: in vivo, female BALB/c nude mice
- Protocol Conditions: female, BALB/c nude, po, analyte: the compound of Formula (A) in plasma, 25 mg/kg p.o. alone (G2) or + Fulvestrant 5 mg/mouse (G4)
Recorded Metric: half-life

Consider the compound `CC(C)NC[C@@H](C(=O)N1CCN(c2ncnc3c2[C@H](C)CC(=O)N3)[C@H]2C[C@H]21)c1ccc(Cl)cc1` and give its measured half-life.
7.93 h

---

- Experiment: Plasma pharmacokinetics in the xenograft mice on day 28 of treatment
- Type: in vivo, female BALB/c nude mice
- Protocol Conditions: female, BALB/c nude, po, analyte: the compound of Formula (A) in plasma, 25 mg/kg p.o. alone (G2) or + Fulvestrant 5 mg/mouse (G4)
Recorded Metric: Tmax (h)
Give your result in h as a bare value.

Consider the compound `CC(C)NC[C@@H](C(=O)N1CCN(c2ncnc3c2[C@H](C)CC(=O)N3)[C@H]2C[C@H]21)c1ccc(Cl)cc1` and give its measured Tmax.
2.75

---

Measured pIC50 by item
- Test system: MCF-7 Cells
- Experiment: Cell proliferation inhibition, CTG (CelltiterGlo) method, alone or combined with fulvestrant
- Format: cell-based
- Protocol Conditions: Homo sapiens, MCF7, 168 h; compound alone; 7 days
// pIC50 is dimensionless: -log10 of concentration (M)

CC(C)NC[C@@H](C(=O)N1CCN(c2ncnc3c2[C@H](C)CC(=O)N3)[C@H]2C[C@H]21)c1ccc(Cl)cc1 [The compound of Formula (A)]	6.12

Next up:
Consider the compound C[C@]12CC[C@@H]3c4ccc(O)cc4C[C@@H](CCCCCCCCC[S+]([O-])CCCC(F)(F)C(F)(F)F)[C@H]3[C@@H]1CC[C@@H]2O (some centres unmarked) [Fulvestrant, reference compound] and give its measured pIC50.
9.72

---

- Experiment: Plasma pharmacokinetics in the xenograft mice on day 28 of treatment
- Type: in vivo, female BALB/c nude mice
- Protocol Conditions: female, BALB/c nude, po, analyte: the compound of Formula (A) in plasma, 25 mg/kg p.o. alone (G2) or + Fulvestrant 5 mg/mouse (G4)
Recorded Metric: Cmax (ng/mL)
Give your result in ng/mL as a bare value.

Consider the molecule `CC(C)NC[C@@H](C(=O)N1CCN(c2ncnc3c2[C@H](C)CC(=O)N3)[C@H]2C[C@H]21)c1ccc(Cl)cc1` and give its measured Cmax.
1340

---

- Experiment: Clinical trial of the compound of Formula (A) tablets as monotherapy: pharmacokinetics
- Format: in vivo, patients with advanced malignant solid tumors
- Protocol Conditions: human, in vivo, oral, 400 mg, Multiple Doses, 400mg Monotherapy, n=8, dose-expansion phase
Recorded Metric: half-life (h)
Give your result in h as a bare value.

Consider the compound `CC(C)NC[C@@H](C(=O)N1CCN(c2ncnc3c2[C@H](C)CC(=O)N3)[C@H]2C[C@H]21)c1ccc(Cl)cc1` and give its measured half-life.
12.9
